testDescription: NCI Yeast Anticancer Drug Screen. Data for the rad50 strain (AID 155);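 note: 0% = growth of vehicle-only cultures of the same strain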
conditionLabel: S. cerevisiae rad50 strain growth inhibition; at 5.0 µM (retest, dose inferred, filed as 0.5); hits give high values
Procedure: Growth inhibition of yeast strains with defined genetic alterations is measured as a screen for potential anti-cancer activity. Selected strains with alterations in DNA damage repair or cell cycle control were exposed to compounds and growth inhibition was measured relative to vehicle treated controls. The strain used in this assay is rad50
About 79,000 compounds went through this panel and 15% of them were active in at least one assay; those are over-represented in the sample as a whole.
Could you please report measured growth inhibition for the items listed next?
Write down the numeric answer in % and omit the unit.

Exercise: Which growth inhibition is listed for `Nc1ccc(N)c2c1C(=O)c1ccccc1C2=O` ?
Key: 32

Exercise: Could you tell me which growth inhibition is on file for `C/C(O)=C(/C=N/C(=S)Nc1ccc(S(N)(=O)=O)cc1)C(=O)Nc1ccccc1C` ?
Key: 0

Exercise: I'd like to know its growth inhibition. The molecule in question is `CCCNC(=S)N/N=C(/C)c1nccc2ccccc12`
Key: 9

Exercise: Look up growth inhibition for this molecule: COC1CCC(/C(C#N)=C/c2ccco2)CC1 (stereo unspecified)
Key: 17

Exercise: Consider the molecule shown here: `O=C1OC(c2ccccc2)=N/C1=C\c1ccc(Oc2ccc(Cl)c(Cl)c2)cc1` What is its recorded growth inhibition?
Key: 8

Exercise: # get_value(readout='growth inhibition', item= `Cc1c[nH]c(C(=O)O)c1-c1ccc2c(-c3ccccc3)nc3ccccc3n12` )
Key: 14

Exercise: Quick one: growth inhibition of `C/C(=N\NC(=S)NC12CC3CC(CC(C3)C1)C2)c1ccccn1` ?
Key: 5

Exercise: Recorded growth inhibition for `O=[N+]([O-])c1ccccc1OS(=O)(=O)c1ccccc1` , please?
Key: 0

Exercise: // query growth inhibition value for entry `CCCCCCCCCCOC(=O)c1ccccn1`
Key: -6

Exercise: If you can, please state the reported growth inhibition value of `O=c1cccccc1[O-].O=c1cccccc1[O-].O=c1cccccc1[O-].[Dy+3]` .
Key: 19

Exercise: What measured growth inhibition goes with `C#CC(=O)OCC#CCOC(=O)C#C` ?
Key: 3

---

What growth inhibition was measured for each of the following?
testDescription: NCI Yeast Anticancer Drug Screen. Data for the rad50 strain (AID 155);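 note: 0% = growth of vehicle-only cultures of the same strain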
conditionLabel: S. cerevisiae rad50 strain growth inhibition; at 5.0 µM (retest, dose inferred, filed as 0.5); hits give high values
The panel holds about 79,000 compounds, 15% with a hit somewhere; the sample as a whole holds those more often.
The answer is to be given in %; state only the numeric part.

Exercise: Would you mind telling me what growth inhibition value was observed for `Cc1cccc2c1nc1ccccc1[n+]2C` ?
Key: -2

Exercise: Request the reported growth inhibition associated with `O=C(O)C1C(c2ccccc2)=C1c1ccccc1`
Key: -7

Exercise: Query (compound): `O=C1C(Cl)=C(Cl)C(=C2C(Cl)=C(Cl)C(=O)C(Cl)=C2Cl)C(Cl)=C1Cl` ; field requested: growth inhibition
Key: 98

Exercise: # input compound: `Cc1c2[nH]c3ccc(Br)cc3c2c(C)c2[nH]ccc(=O)c12` ; wanted: its growth inhibition
Key: -5

Exercise: Name the recorded growth inhibition for CCC(c1ccc(O)cc1)C(CC)c1ccc(O)c(CN(C)C)c1 (configuration not stated) .
Key: 1

Exercise: Item `Oc1c(Cl)c(Cl)c(O)c2c1CCCC2` has what recorded growth inhibition?
Key: 46

Exercise: Quick check: growth inhibition of CCOC(=O)C1CCN(Cc2ccccc2)CC1=O (configuration not stated) ?
Key: 61

Exercise: Quick one: growth inhibition of `Nc1nc(Cl)cc(Nc2ccc(Cl)c(Cl)c2)n1` ?
Key: -1

Exercise: Which growth inhibition is reported for this compound? O=C(c1ccccc1)C1(C(=O)c2ccccc2)/C(=N\O)C2CCC1C2 (configuration not stated)
Key: 7

Exercise: Quick one: growth inhibition for `CC(C)(C)NCc1cc(Nc2ccnc3cc(Cl)ccc23)cc(-c2ccc(Cl)cc2)c1O` ?
Key: -6

Exercise: Look up growth inhibition: CCC1(C)OC(=O)C(c2ccccc2)O1 (configuration not stated)
Key: 1

Exercise: Look up growth inhibition: `CN1CCN=C1c1ccc(NC(=O)Nc2ccc(NC(=O)Nc3ccc(C4=NCCN4C)cc3)cc2)cc1`
Key: -1

Exercise: # query: growth inhibition of entry O=C1CSC(c2ccccc2O)N1c1ccc(-n2c(-c3ccccc3)nc3ccccc3c2=O)cc1 (configuration not stated)
Key: 2

Exercise: # growth inhibition lookup, item `COC(=O)c1ccc2ccccc2c1`
Key: 5

Exercise: Quick one: growth inhibition for `O=[N+]([O-])c1ccc2c(Nc3ccccc3-c3ccccc3Nc3c4ccccc4nc4cc([N+](=O)[O-])ccc34)c3ccccc3nc2c1` ?
Key: 29

Exercise: Dear colleague, I am looking for the recorded growth inhibition of the following compound: `O=C1COCC(=O)OCCOCCSCCOCCO1`
Key: 5

Exercise: // returns reported growth inhibition for input `CC(=O)/C(=C\c1ccc(Cl)cc1Cl)C(=O)CCN(C)C`
Key: 4

Exercise: Entry `Cc1ccc(C)c(NC(=O)CCC(=O)CC(=O)c2ccncc2)c1` has what growth inhibition?
Key: -4

Exercise: Give its growth inhibition value. Item: `Cc1ccccc1N1C(=O)C(=O)c2cccc(C)c21`
Key: 2

Exercise: Look up growth inhibition: `O=C1OC2(c3ccc(O)cc3Oc3cc(O)ccc32)c2c1c(-c1ccccc1)c(-c1ccccc1)c(-c1ccccc1)c2-c1ccccc1`
Key: 26

Exercise: What value of measured growth inhibition is listed for `COc1ccc(/C=C/Cc2cc3c(cc2O)OCO3)cc1` ?
Key: -15

Exercise: If you can, please state the reported growth inhibition value of `Cc1ccc([Si](O)(c2ccc(C)cc2)c2ccc(C)cc2)cc1` .
Key: 85

Exercise: What does the data say about its growth inhibition? Entry: `CCN(CC)CCSCCCNc1cc(C)nc2c1ccc1c2ccc2c(NCCCSCCN(CC)CC)cc(C)nc21`
Key: 5

Exercise: Would you mind telling me what growth inhibition value was observed for COc1cccc2c1OC(c1ccc(C#N)cc1)C([N+](=O)[O-])=C2 (configuration not stated) ?
Key: 84

Exercise: Report growth inhibition for `COc1ccc(/C=C/c2ccnc3ccccc23)cc1OC` please.
Key: 17

Exercise: Recorded growth inhibition for `CCOc1ccc2c(c1)[n+]([O-])c(S(=O)(=O)c1ccc(C)cc1)c(N)[n+]2[O-]` , please?
Key: -5

Exercise: Consider the compound `C#CC(CC)(CC)N=Cc1cc(Cl)cc(Cl)c1O` and give its measured growth inhibition.
Key: 65

Exercise: I have this compound here, `O=C(/C=C\c1ccc(Cl)c(Cl)c1)c1cccs1` , and I need its recorded growth inhibition.
Key: 13

Exercise: Can you share its growth inhibition? I mean this compound: `Clc1ncccc1-n1cccc1/C=N\N=C/c1cccn1-c1cccnc1Cl`
Key: 5

Exercise: What value of measured growth inhibition is listed for `COC(=O)c1nnn(-c2ccc(S(N)(=O)=O)cc2)c1C(=O)c1ccc(Cl)c(Cl)c1` ?
Key: 1

Exercise: Looking for the measured growth inhibition of `COc1ccccc1NC(=O)c1ccccc1F` , can you help?
Key: -154

Exercise: May I ask what growth inhibition has been recorded for Cc1ccc2c(c1)C1(SC(CC(=O)O)C(=O)N1c1ccc(Cl)cc1)C(=O)N2 (configuration not stated) ?
Key: 4

Exercise: Return reported growth inhibition; argument: `NC(=S)C(=S)N/C=C/c1nc2ccccc2[nH]c1=O`
Key: -19

Exercise: I am curious: what growth inhibition value has been reported for COC1/C=C/OC2(C)Oc3c(C)c(O)c4c5c(cc(O)c4c3C2=O)N=C(O5)/C(C)=C\C=C\C(C)C(O)C(C)C(O)C(C)C(OC(C)=O)C1C (configuration not stated) ?
Key: 5

Exercise: Please look up its growth inhibition: `Cc1cc2nc3[nH]c4c(Cl)cc(Cl)cc4c3nc2cc1C`
Key: 26

Exercise: // returns reported growth inhibition for input `O=c1ccc([N+](=O)[O-])c[nH]1.[Ag]`
Key: 98

Exercise: Any idea what its growth inhibition is? The compound is CC12C(=O)N(CC(=O)O)C(=O)C1(C)C1c3ccccc3C2c2ccc3ccccc3c21 (configuration not stated)
Key: 7

Exercise: What growth inhibition value was documented for this compound, `COc1ccc2nc3cc(Cl)ccc3c(NCCCCCCNc3c4ccc(Cl)cc4nc4ccc(OC)nc34)c2n1` ?
Key: 5

Exercise: For the compound shown here, `COC(=O)/C=C/c1c2ccccc2cc2ccccc12` , give the reported growth inhibition.
Key: 11

Exercise: What measured growth inhibition goes with `CCN1/C(=C\c2cc(C)nc(-c3ccccc3)[n+]2C)C=Cc2ccccc21` ?
Key: 29

Exercise: Could you share which growth inhibition value was measured for N#CC(C(=O)C(=O)NC1C2CC3CC(C2)CC1C3)c1c(Cl)cccc1Cl (configuration not stated) ?
Key: 1

Exercise: Consider the compound CCCCNCCCNCCCNC(=O)c1csc(-c2csc(CCNC(=O)C(NC(=O)C(C)C(O)C(C)NC(=O)C(NC(=O)c3nc(C(CC(N)=O)NCC(N)C(N)=O)nc(N)c3C)C(OC3OC(CO)C(O)C(O)C3OC3OC(CO)C(O)C(OC(N)=O)C3O)c3cnc[nH]3)C(C)O)n2)n1 (configuration not stated) and give its measured growth inhibition.
Key: 97

Cited source: PubChem BioAssay (NCI)
